target: HLA-A*31:01; assay: IEDB peptide-MHC binding, purified MHC/direct/fluorescence; filed as Kd, often an IC50 or EC50 that approximates it; bounds were set here for any values at or beyond the usual limits of such assays; details: source organism: Coxiella burnetii
measured.quantity: Kd (nM)
API: value field is a number in nM; no unit string.

Looking up "PTWFGISFR" , I see its Kd listed as 209

---

biological target: HLA-B*40:01; test: IEDB peptide-MHC binding, purified MHC/direct/fluorescence; filed as Kd, often an IC50 or EC50 that approximates it; bounds were set here for any values at or beyond the usual limits of such assays; settings: source organism: Vibrio vulnificus
measured.quantity: Kd

Looking up "STDTRHIPQ" , I see its Kd listed as ≥ 20 µM
